# System: gastric acid secretion
# Run description: Shay test (pylorus-ligated rats, gastric acid secretion-inhibiting activity)
# Format: in vivo, rat
# Test settings: Rattus norvegicus, 4 h, female rats, i.d., 50% reduction of acidity of gastric juice, read-out: Shay test ED 50 Acid
Quantity name: ED50
Reply with a number, then the unit it belongs to.

Cc1ccc(C[S+]([O-])c2nc3cc4c(cc3[nH]2)OCO4)nc1 (centres unmarked) = 28 mg/kg

Query string: Give the reported ED50 for c1ccc(CSc2nc3cc4c(cc3[nH]2)OCO4)nc1 (system: gastric acid secretion).
Result string: 29 mg/kg

Query string: Which measured ED50 belongs to Cc1ccc(CSc2nc3cc4c(cc3[nH]2)OCO4)nc1 , tested on gastric acid secretion?
Result string: 100 mg/kg

Query string: // map CC1(C)C(=O)C(C)(C)c2cc3[nH]c(SCc4ccccn4)nc3cc21 to recorded ED50 (system: gastric acid secretion)
Result string: 9 mg/kg

Query string: API: value(readout=ED50, system=gastric acid secretion) for record Cc1ccc(CSc2nc3cc4c(cc3[nH]2)CCC4)nc1.Cl.Cl
Result string: 28 mg/kg

###

# Tested on: acid secretion caused by 4-methylhistamine dihydrochloride
# Run description: Heidenhain test (gastric pouch dogs, inhibition of 4-methylhistamine-stimulated acid secretion)
# Type: in vivo, dog
# Test settings: Canis lupus familiaris, po, 50% inhibition of acid secretion caused by 4-methylhistamine dihydrochloride infusion, read-out: Heidenhain test ED 50
Quantity name: ED50 (mg/kg)
Enter your answer as a number in mg/kg; do not include the unit.

Query string: Fill in the recorded ED50 for this compound, with acid secretion caused by 4-methylhistamine dihydrochloride as test system: Cc1ccc(CSc2nc3cc4c(cc3[nH]2)CCC4)nc1.Cl.Cl
Result string: 3.6

###

# System: acid secretion caused by 4-methylhistamine dihydrochloride
# Run description: Heidenhain test (gastric pouch dogs, inhibition of 4-methylhistamine-stimulated acid secretion)
# Assay type: in vivo, dog
# Test settings: Canis lupus familiaris, po, 50% inhibition of acid secretion caused by 4-methylhistamine dihydrochloride infusion, read-out: Heidenhain test ED 50
# Method: The two experimental procedures described hereinafter were used to determine the gastric acid secretion-inhibiting activity: Heidenhain test A part of the stomach fundus of female and male dogs is separated from the remaining stomach in the form of a pouch according to the […] technique [described by Rudick et al. in J. Surgical Research 7, 383-398 (1967)]. In the pouch there is fitted a steel cannula which is conducted externally through the abdominal wall. […]
Quantity name: ED50 (mg/kg)
Please state the figure in mg/kg; there is no need to write the unit.

Check out these entries, answers already filled in.
Cc1ccc(CSc2nc3cc4c(cc3[nH]2)OCO4)nc1 = 1.8
c1ccc(CSc2nc3cc4c(cc3[nH]2)OCO4)nc1 = 2.6
Cc1ccc(C[S+]([O-])c2nc3cc4c(cc3[nH]2)OCO4)nc1 (stereo not shown) = 2.3

Now for the compound whose ED50 we want.
Query string: Quick one: ED50 of CC1(C)C(=O)C(C)(C)c2cc3[nH]c(SCc4ccccn4)nc3cc21 ?
Result string: 5.5
